# METHOD: Biodistribution study of [Al^18F]5
# Assay type: in vivo, mice
# DETAILS: male, NSG, mouse, liver, total radioactivity; 2 hour; read-out: Biodistribution: Liver
OBSERVABLE: tissue uptake at 2 h (%ID/g)
Express it in %ID/g; write the number only.

Note to self: tissue uptake at 2 h recorded for NC(=O)[C@H](CCCCNC(=S)Nc1ccc(CC2CN(CC(=O)O)CCN(CC(=O)O)CCN2CC(=O)O)cc1)NC(=O)[C@H](Cc1ccc(O)cc1)NC(=O)[C@H](CCC(=O)O)NC(=O)[C@H](CCC(=O)O)NC(=O)[C@H](CCC(=O)O)NC(=O)CCCCCNC(=O)CC[C@H](NC(=O)N[C@@H](CCC(=O)O)C(=O)O)C(=O)O (single isomer, unassigned) [[Al^18F]5] was 0.17

====

# METHOD: Biodistribution study of [Al^18F]5
# Format: in vivo, mice
# DETAILS: male, NSG, mouse, liver, total radioactivity; 1 hour; read-out: Biodistribution: Liver
OBSERVABLE: tissue uptake at 1 h

Note to self: tissue uptake at 1 h recorded for NC(=O)[C@H](CCCCNC(=S)Nc1ccc(CC2CN(CC(=O)O)CCN(CC(=O)O)CCN2CC(=O)O)cc1)NC(=O)[C@H](Cc1ccc(O)cc1)NC(=O)[C@H](CCC(=O)O)NC(=O)[C@H](CCC(=O)O)NC(=O)[C@H](CCC(=O)O)NC(=O)CCCCCNC(=O)CC[C@H](NC(=O)N[C@@H](CCC(=O)O)C(=O)O)C(=O)O (single isomer, unassigned) [[Al^18F]5] was ~0.4 %ID/g

====

# METHOD: Biodistribution study of [Al^18F]5
# Type: in vivo, mice
# DETAILS: male, NSG, mouse, tumor (PC3-PIP), total radioactivity; 2 hour; n = 6; preliminary; read-out: Biodistribution: Tumor (PC3PIP)
OBSERVABLE: tissue uptake at 2 h (%ID/g)
Express it in %ID/g; write the number only.

Note to self: tissue uptake at 2 h recorded for NC(=O)[C@H](CCCCNC(=S)Nc1ccc(CC2CN(CC(=O)O)CCN(CC(=O)O)CCN2CC(=O)O)cc1)NC(=O)[C@H](Cc1ccc(O)cc1)NC(=O)[C@H](CCC(=O)O)NC(=O)[C@H](CCC(=O)O)NC(=O)[C@H](CCC(=O)O)NC(=O)CCCCCNC(=O)CC[C@H](NC(=O)N[C@@H](CCC(=O)O)C(=O)O)C(=O)O (single isomer, unassigned) [[Al^18F]5] was 4.6

Entry source: patent US10918741B2
